system: P388 leukemia ip, CD2F1 mice, survival T/C; test: NCI In Vivo Anticancer Drug Screen. Data for tumor model P388 Leukemia (intraperitoneal) in CD2F1 (CDF1) mice; settings: endpoint: median survival time; dose: 100.0 mg/kg/injection; schedule: Q01DX009 (ip); vehicle: saline with Tween-80; higher = longer survival
Inconclusive results and toxic doses are left out.
Listed below: T/C values for each entry.

Fc1ccccc1C(Nc1ncccn1)Nc1ncccn1; 87 % of control
COC1OC2COC(c3ccccc3)OC2C(O)C1O (stereo unspecified); 107 % of control
Cc1nc(SCC(=O)O)n[nH]1; 103 % of control
CCOC(=O)/C(=N/NS(=O)(=O)c1c(C)cc(C)cc1C)c1ccco1; 106 % of control
CCN(CC)c1ccc2cc(-c3nc4ccccc4[nH]3)c(=O)oc2c1; 95 % of control
O=c1cccccc1Cl; 101 % of control

--- query ---
stdin: Give its T/C value. Item: CC12CCC3C(CCC4CC(O)CCC43C)C1CC(C1(O)C(=O)Nc3ccccc31)C2=O (stereo unspecified)
stdout: 94 % of control

###

Parameter: T/C. Scope: all listed entries.
system: P388 leukemia ip, CD2F1 mice, survival T/C; experiment: NCI In Vivo Anticancer Drug Screen. Data for tumor model P388 Leukemia (intraperitoneal) in CD2F1 (CDF1) mice; conditions: endpoint: median survival time; dose: 200.0 mg/kg/injection; schedule: Q01DX005 (ip); vehicle: saline with Tween-80; higher = longer survival
Toxic doses and inconclusive results are not listed.

Solved entries:
O=C(O)c1cn(O)ccc1=O; 97 % of control
Cc1nn(-c2ccccc2)c2c1S(=O)(=O)c1ccccc1-2; 88 % of control
Cc1cccc(C)c1NC(=O)C(=O)/C(=C(\N)c1ccccc1)c1ccccc1; 90 % of control

stdin: Quick check: T/C on P388 leukemia ip, CD2F1 mice, survival T/C, item Cc1cc(NC(=O)C(=O)C(C#N)c2cccc(Cl)c2)no1 (centres undefined) ?
stdout: 108 % of control

###

T/C by entry:
test system: P388 leukemia ip, CD2F1 mice, survival T/C; assay: NCI In Vivo Anticancer Drug Screen. Data for tumor model P388 Leukemia (intraperitoneal) in CD2F1 (CDF1) mice; settings: endpoint: median survival time; dose: 100.0 mg/kg/injection; schedule: Q01DX009 (ip); vehicle: saline with Tween-80; higher = longer survival
Toxic doses and inconclusive results are not listed.

O=C(O)C1CCCCC1Cc1ccccc1 (stereo not given); 98 % of control
CCn1c2ccccc2nc2cc3c(cc21)c(Cl)c(=O)c1ccccc13; 104 % of control
CC(C)SC1NC(=O)N(C)C1=O (stereo not given); 107 % of control
Oc1ccc(O)c([P+](c2ccccc2)(c2ccccc2)c2ccccc2)c1; 115 % of control

Next:
stdin: # lookup: T/C of O=C(CN1C(=O)c2ccccc2C1=O)NC(Cc1ccccc1)C(=O)O (stereo not given)
stdout: 105 % of control

###

The following compounds are listed with their measured T/C values.
tested on: P388 leukemia ip, CD2F1 mice, survival T/C; experiment: NCI In Vivo Anticancer Drug Screen. Data for tumor model P388 Leukemia (intraperitoneal) in CD2F1 (CDF1) mice; conditions: endpoint: median survival time; dose: 100.0 mg/kg/injection; schedule: Q01DX001 (ip); vehicle: Klucel (hydroxypropylcellulose) (HPC); higher = longer survival
Inconclusive results and toxic doses are left out.

stdin: So what's the measured T/C for this one? CCOC(=O)c1c(C2OC(CO)C(O)C2O)cn(C)c1-c1ccccc1 (stereo unspecified)
stdout: 98 % of control

stdin: GET /values?readout=T/C&item= "COc1c2cc(O)cc1CCCC1=CC(=O)C=C(CCC2)C1=O"
stdout: 99 % of control

stdin: Quick one: T/C for "Clc1cccc2nnc(Br)n12" ?
stdout: 102 % of control

stdin: // returns reported T/C for input "NC(=S)c1ccc(C=Nc2ccccc2)cc1"
stdout: 99 % of control

stdin: Which T/C is listed for "Cc1ccc(-c2cc3cc4c(cc3[nH]2)Sc2ccccc2O4)cc1" ?
stdout: 98 % of control

stdin: Would you kindly share the measured T/C for "Cc1ccc(S(=O)(=O)Nn2nnnc2N)cc1" ?
stdout: 102 % of control
